Assay: Half life in iv dosed mouse
Type: ADME, organism-based
Conditions: in vivo
measured.attribute: half-life (h)
I only need the number, in h, no unit after it.

Kindly note the recorded half-life for `Cc1cc(OCC(=O)O)cc(C)c1Cc1ccc(O)c(C(C)C)c1` , which is 1.3

---

Assay: Ratio of AUC in C57Bl/6 mouse brain to serum at 1.5 microM/Kg, ip upto 8 hrs by LC-MS/MS analysis
Format: ADME, organism-based
Conditions: read-out: Ratio AUC
measured.attribute: Kp at 8 h
Kindly provide the number alone.

Kindly note the recorded Kp at 8 h for `Cc1cc(OCC(=O)O)cc(C)c1Cc1ccc(O)c(C(C)C)c1` , which is 0.02

---

Experiment: Prodrug conversion in C57Bl/6 mouse brain assessed as increase in sobetirome level at 1.5 micromol/kg, ip after 30 mins by LC-MS/MS analysis relative to sobetirome control
Assay type: ADME, organism-based
Conditions: in vivo, 0.5 h, dose 1.5 µmol/kg
measured.attribute: Drug metabolism

// worked examples, Drug metabolism included
| compound | result |
| --- | --- |
| Cc1cc(OCC(=O)OCCN(C)C)cc(C)c1Cc1ccc(O)c(C(C)C)c1 | Metabolite_Notdetected |
| Cc1cc(OCC(=O)OCCNC(=O)[C@@H](N)C(C)C)cc(C)c1Cc1ccc(O)c(C(C)C)c1.Cl | Metabolite_Notdetected |
| Cc1cc(OCC(=O)OCCN2CCOCC2)cc(C)c1Cc1ccc(O)c(C(C)C)c1 | Metabolite_Notdetected |
| Cc1cc(OCC(=O)OC2CCCNC2)cc(C)c1Cc1ccc(O)c(C(C)C)c1 (configuration not stated) | Metabolite_Notdetected |
| Cc1cc(OCC(=O)OC2(C)CNC2)cc(C)c1Cc1ccc(O)c(C(C)C)c1 | Metabolite_Notdetected |

Kindly note the recorded Drug metabolism for `Cc1cc(OCC(=O)OC2CN(C)C2)cc(C)c1Cc1ccc(O)c(C(C)C)c1` , which is Metabolite_Notdetected

Kindly note the recorded Drug metabolism for Cc1cc(OCC(=O)OCC2CCCCN2)cc(C)c1Cc1ccc(O)c(C(C)C)c1 (configuration not stated) , which is Metabolite_Notdetected
